System: HCC461 cells
protocol: Cell viability assay in HCC461 cells (WST-1)
Format: cell-based
condition summary: HCC461, 48 h, read-out: HCC461 cell
// reported IC50 for each item listed
readout type: IC50 (nM)

smiles structure | endpoint unit | quantitative readout
CN[C@@H](C)C(=O)N[C@@H](CC#CC#CC[C@H](NC(=O)[C@H](C)NC)C(=O)N1CCC[C@H]1C(=O)N[C@@H]1CCCc2ccccc21)C(=O)N1CCC[C@H]1C(=O)N[C@@H]1CCCc2ccccc21 | nM | 4
CN[C@@H](C)C(=O)N[C@@H](CCCCCC[C@H](NC(=O)[C@H](C)NC)C(=O)N1CCC[C@H]1C(=O)N[C@@H]1CCCc2ccccc21)C(=O)N1CCC[C@H]1C(=O)N[C@@H]1CCCc2ccccc21 | nM | 10

* * *

// reported Bir binding for each item listed
target or system: truncated XIAP containing only BIR1, BIR2, and BIR3 domains (Homo sapiens, UniProt P98170)
Construct: truncated XIAP containing only BIR1, BIR2, and BIR3 domains
Sequence (P98170 1-356 limits assumed): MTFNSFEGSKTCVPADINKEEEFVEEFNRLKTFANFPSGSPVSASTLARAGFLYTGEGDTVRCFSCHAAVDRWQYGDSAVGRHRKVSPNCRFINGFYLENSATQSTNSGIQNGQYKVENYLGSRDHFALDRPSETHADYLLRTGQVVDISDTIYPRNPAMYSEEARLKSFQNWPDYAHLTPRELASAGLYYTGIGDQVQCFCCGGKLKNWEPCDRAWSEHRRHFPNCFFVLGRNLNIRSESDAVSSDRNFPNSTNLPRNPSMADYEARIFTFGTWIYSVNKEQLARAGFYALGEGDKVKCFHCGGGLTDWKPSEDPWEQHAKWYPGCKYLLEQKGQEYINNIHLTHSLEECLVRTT
protocol: Fluorescent polarization assay (Bir binding)
condition summary: competition with 2 nM fluorescein labeled AVPI peptide, room temperature, 1 hour
readout type: Bir binding (µM)

compound | quantitative readout
CN[C@@H](C)C(=O)NC(C(=O)N[C@@H](Cc1cn(C/C=C\Cn2cc(C[C@H](NC(=O)[C@@H](NC(=O)[C@H](C)NC)C(C)(C)C)C(=O)N[C@@H]3CCCc4ccccc43)nn2)nn1)C(=O)N[C@@H]1CCCc2ccccc21)C(C)(C)C.Cl.Cl (stereo partly shown) | 1.5
CC[C@H](NC)C(=O)N[C@@H](CC#CC#CC[C@H](NC(=O)[C@H](CC)NC)C(=O)N1CCC[C@H]1C(=O)N[C@@H]1CCCc2ccccc21)C(=O)N1CCC[C@H]1C(=O)N[C@@H]1CCCc2ccccc21 | 0.196
CC[C@H](NC)C(=O)N[C@@H](CCCCCC[C@H](NC(=O)[C@H](CC)NC)C(=O)N1CCC[C@H]1C(=O)N[C@@H]1CCCc2ccccc21)C(=O)N1CCC[C@H]1C(=O)N[C@@H]1CCCc2ccccc21 | 0.2
CN[C@@H](C)C(=O)N[C@H](C(=O)N1CCCC1)c1ccc(C#CCO[C@H](C)[C@H](NC(=O)[C@H](C)NC)C(=O)N2CCC[C@H]2C(=O)N[C@@H]2CCCc3ccccc32)cc1.Cl.Cl | 0.15

* * *

System: Caspase3 in Hela S100
protocol: In-vitro caspase-3 activation assay in Hela S100 extract
Assay type: biochemical
condition summary: 100 nM compound, Hela S100, 1 mM dATP; slope versus control (compound 1 = Caspase std.)
readout type: Caspase % (%)

smiles structure | target or system | quantitative readout
CC[C@H](NC)C(=O)N[C@H](C(=O)N1CCC[C@H]1C(=O)N[C@@H]1CCCc2ccccc21)c1ccc(C#CCO[C@H](C)[C@H](NC(=O)[C@H](C)NC)C(=O)N2CCC[C@H]2C(=O)N[C@@H]2CCCc3ccccc32)cc1.Cl.Cl | Caspase3 in Hela S100 | 102
CC[C@H](NC)C(=O)N[C@H](C(=O)N1CCCC1)c1ccc(C#CCO[C@H](C)[C@H](NC(=O)[C@H](C)NC)C(=O)N2CCC[C@H]2C(=O)N[C@@H]2CCCc3ccccc32)cc1.Cl.Cl | Caspase3 in Hela S100 | 59
CN[C@@H](C)C(=O)N[C@H](C(=O)N1CCC[C@H]1C(=O)N[C@@H]1CCCc2ccccc21)[C@@H](C)OCc1nnn2c1-c1c(CO[C@H](C)[C@H](NC(=O)[C@H](C)NC)C(=O)N3CCC[C@H]3C(=O)N[C@@H]3CCCc4ccccc43)nnn1CC2.Cl.Cl | Caspase3 in Hela S100 | 109
CN[C@@H](C)C(=O)N[C@@H](CC#Cc1ccc([C@H](NC(=O)[C@H](C)NC)C(=O)N2CCC[C@H]2C(=O)N[C@@H]2CCCc3ccccc32)cc1)C(=O)N1CCC[C@H]1C(=O)N[C@@H]1CCCc2ccccc21.Cl.Cl | Caspase3 in Hela S100 | 106
